# Test system: SNB-19 CNS
# method-description: NCI tumour cell line growth inhibition, 48 h
recorded-metric: TGI

CCC[CH2][Sn]1([CH2]CCC)[O]Cc2nc(C)ccc2[O]1 :: 14.9 µM
CC(=O)OCCN1c2ccccc2Sc2cnccc21 :: > 10 µM
CSC(C1c2ccccc2N(c2ccc(C)cc2)C2=NC(=O)N(C)C(=O)C21Cl)S(=O)(=O)c1ccc(C)cc1 (stereo not given) :: 85.2 µM
COc1cc(/C=C\C(=O)O)ccc1OCc1ccccc1 :: > 100 µM
Brc1cccc(C=NC23CC4CC(CC(C4)C2)C3)c1 :: > 100 µM
COC1(OC)CCCCC2c3cccc(OC(C)=O)c3C21OC(C)=O (stereo not given) :: > 100 µM
CC[CH2][Sn]([CH2]CC)([O]C(=O)c1cccnc1SC)[O][Sn]([CH2]CC)([CH2]CC)[O]C(=O)c1cccnc1SC :: 2.22 µM
O=C1CCC2(c3ccc(F)cc3)Nc3cc(Cl)ccc3N12 (stereo not given) :: > 100 µM
CC1(C)OC2[C@@H](CNC(=O)NC(=O)NC(=O)CI)O[C@@H](n3cnc4c(NC(=O)Nc5ccccc5)ncnc43)[C@H]2O1 (stereo not given in full) :: > 50 µM
CCCn1cnc2c(SCc3ccccc3Cl)nc(N)nc21 :: > 100 µM
O=C(N/N=C/c1ccco1)c1cc(I)cc(I)c1O :: > 50 µM
NC(=O)c1cc2ccccc2o/c1=N/O :: > 100 µM
CC1CC(=O)Nc2nc3ccccc3n21 (stereo not given) :: > 100 µM
N#Cc1ccc(O)c(C2=NCC(c3cccc(Oc4ccccc4)c3)O2)c1 (stereo not given) :: > 100 µM
COC(=O)/C(=N/NC(=O)C[N+](C)(C)C)C(C(=O)OC)C(=O)C(=O)Nc1ccc(F)cc1 (stereo not given) :: > 100 µM
COc1ccc(/C=C/CN(C)CCc2ccccc2)cc1OC :: > 100 µM
CC(C)c1nc(CN(C)C(=O)N[C@H](C(=O)N[C@@H](Cc2ccccc2)C[C@H](O)[C@H](Cc2ccccc2)NC(=O)OCc2cncs2)C(C)C)cs1 :: > 89 µM
CN1CCN(C)C12C=c1ccccc1=CC21CC1 :: > 100 µM
NC(N)=Nc1ncccc1[N+](=O)[O-] :: > 100 µM
CCNC(=O)C1CCCN1C(=O)C(CCCN=C(N)N)NC(=O)C(CC(C)C)NC(=O)C(Cc1c[nH]c2ccccc12)NC(=O)C(Cc1ccc(O)cc1)NC(=O)C(CO)NC(=O)C(Cc1c[nH]c2ccccc12)NC(=O)C(Cc1cnc[nH]1)NC(=O)C1CCC(=O)N1 (stereo not given) :: > 100 µM
